Attribution: patent US9636376B2

- Assay Name: Effect of pH on saturation solubility of carfilzomib
- Format: physicochemical
- Recorded Conditions: 1% L-cysteine solution, aqueous buffer, thermodynamic from solid; pH 1.7 (1% L-Cysteine)
Attribute Measured: solubility
Respond with the figure and its unit, in that order.

Give its solubility value. Item: CC(C)C[C@H](NC(=O)[C@H](CCc1ccccc1)NC(=O)CN1CCOCC1)C(=O)N[C@@H](Cc1ccccc1)C(=O)N[C@@H](CC(C)C)C(=O)[C@@]1(C)CO1 [Carfilzomib]
459 µg/mL
